measured_on: T1, rat GalR3 receptor (rat, UniProt O88626 1-370)
T1 construct: Full-length receptor (370 amino acids) expressed from pCR3.1 in COS-7 cells; The assay used membrane preparations of the transfected cells; also called rat type 3 galanin receptor; cellular receptors
T1 chain: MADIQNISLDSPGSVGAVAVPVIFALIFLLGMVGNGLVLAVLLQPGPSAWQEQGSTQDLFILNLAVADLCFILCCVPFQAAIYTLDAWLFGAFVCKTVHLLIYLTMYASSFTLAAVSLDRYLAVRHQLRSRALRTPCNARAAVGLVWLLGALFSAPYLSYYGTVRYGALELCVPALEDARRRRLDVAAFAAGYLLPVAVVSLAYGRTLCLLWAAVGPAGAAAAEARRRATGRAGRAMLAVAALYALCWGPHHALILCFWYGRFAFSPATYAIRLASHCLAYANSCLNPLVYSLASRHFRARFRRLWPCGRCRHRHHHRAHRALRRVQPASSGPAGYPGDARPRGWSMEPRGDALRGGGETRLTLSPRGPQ
assay_details: competition with 0.3 nM 125I-porcine galanin on membranes of COS-7 cells transfected with rat GalR3; filtration; Cheng-Prusoff
Method: Binding of ¹²⁵I-porcine-galanin to the membrane preparations was performed in a buffer containing 25 mM Tris-Cl (pH7.4), 1% bovine serum albumin (w/v), 0.1% bacitracin, 2 μg/ml leupeptin and 10 mM MgCl₂. […] All data were analyzed using non-linear regression software (Prism, GraphPad, San Diego, Calif.), and the Ki was calculated using the method of Cheng and Prusoff [Biochem. Pharmacol. 22:3099-3108 (1973)]. […]
property_measured: pKi
The meaning of pKi here: minus log10 of the concentration in molar units.

Exercise: Query: pKi; subject: WTLNSAGYLLGPHAIDNHRSFSDKHGLT (peptide, UniProt P10683 34-61, looked up, range 2-29; also called Rat galanin 92-29) [rat galanin(2-29)]
Key: 7.85

Exercise: Query: pKi; subject: GWTLNSAGYLLGPHAIDNHRSFSDKHGLT (ligand, UniProt P10683 33-61, looked up, also called galanin itself) [rat galanin]
Key: 8.92
